# system_under_test: AChE (Electrophorus electricus, UniProt O42275)
# Construct: purchased Sigma-Aldrich C2888
# Sequence (O42275 24-633): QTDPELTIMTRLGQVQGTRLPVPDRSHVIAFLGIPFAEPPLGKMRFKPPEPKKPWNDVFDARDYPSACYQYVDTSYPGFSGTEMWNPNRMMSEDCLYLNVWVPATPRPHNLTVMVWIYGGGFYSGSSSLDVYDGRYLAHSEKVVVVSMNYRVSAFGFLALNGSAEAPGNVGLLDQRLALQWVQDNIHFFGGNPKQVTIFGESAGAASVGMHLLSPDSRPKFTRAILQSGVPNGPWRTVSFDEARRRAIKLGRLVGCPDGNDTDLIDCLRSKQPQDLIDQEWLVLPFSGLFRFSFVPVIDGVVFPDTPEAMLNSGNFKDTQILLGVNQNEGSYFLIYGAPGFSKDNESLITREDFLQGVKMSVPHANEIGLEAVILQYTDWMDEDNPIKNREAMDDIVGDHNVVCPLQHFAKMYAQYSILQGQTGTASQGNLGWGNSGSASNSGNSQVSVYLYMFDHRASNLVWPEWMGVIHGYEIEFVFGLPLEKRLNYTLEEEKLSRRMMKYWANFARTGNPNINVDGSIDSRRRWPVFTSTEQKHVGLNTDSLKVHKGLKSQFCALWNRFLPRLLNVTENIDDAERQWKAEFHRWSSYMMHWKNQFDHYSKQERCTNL
# assay_notes: AChE inhibition assay (Ellman method)
# Assay type: biochemical
# reported_conditions: mean of three independent experiments ± SEM; > X = highest soluble concentration tested; read-out: AChE IC50
reported_metric: log10 IC50 (log10 of the value in µM)
// do not treat as linear: log10 of IC50, unit µM

* CCCCCn1ccc2ccccc21 | 1.98

Hey, quick one: what's log10 IC50 for each of these?
1. CCCCCCCN1C(=O)C(=O)c2ccccc21
2. CCCCCCCCCn1ccc2ccccc21

Result:
[1.83, 1.65]

Would you be so kind as to report log10 IC50 for each listed record?
1. CCCCCCCCCCn1ccc2ccccc21
2. CCCCCCCCCN1C(=O)C(=O)c2ccccc21
3. CCCCCCn1ccc2ccccc21

Result:
1: 1.69; 2: 1.91; 3: 1.88

Ask: So what log10 IC50 did "CCCN1C(=O)C(=O)c2ccccc21" get with AChE (Electrophorus electricus, UniProt O42275)?
Result: 2.72
